TESTED SYSTEM: HDAC3 (Homo sapiens, UniProt O15379)
Construct: purchased Reaction Biology Corporation (assay run by the CRO)
Sequence (O15379 whole entry): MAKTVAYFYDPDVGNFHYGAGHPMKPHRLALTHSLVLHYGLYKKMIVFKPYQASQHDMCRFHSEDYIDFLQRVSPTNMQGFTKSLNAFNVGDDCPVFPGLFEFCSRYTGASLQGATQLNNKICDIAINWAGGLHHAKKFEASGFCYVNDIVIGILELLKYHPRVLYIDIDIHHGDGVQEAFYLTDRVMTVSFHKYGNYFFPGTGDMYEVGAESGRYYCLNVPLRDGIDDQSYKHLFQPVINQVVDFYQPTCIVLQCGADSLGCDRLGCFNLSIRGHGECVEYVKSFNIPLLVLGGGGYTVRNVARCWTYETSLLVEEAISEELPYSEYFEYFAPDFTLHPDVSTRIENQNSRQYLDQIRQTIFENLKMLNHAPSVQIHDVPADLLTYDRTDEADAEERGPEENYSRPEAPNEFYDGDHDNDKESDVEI
Sequence (Q9Y618 395-489 partner limits assumed): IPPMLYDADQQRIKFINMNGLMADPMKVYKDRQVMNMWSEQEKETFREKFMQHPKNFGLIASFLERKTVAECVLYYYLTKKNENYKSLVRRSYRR
ASSAY EXPLANATION: HDAC3 inhibition, full IC50 measurement (Reaction Biology; fluorogenic p53 peptide RHKK(Ac)AMC)
Format: biochemical
EXPERIMENTAL CONDITIONS: Conc. 1.11E-06 M, t1
Peptide text beside a SMILES is read from it.
The entries below come with measured HDAC3 activity raw data (signal) values attached.
Keep it simple and answer with nothing but the number.

These recorded examples may help you get a feel for the data.
What value of HDAC3 activity raw data (signal) has been recorded for this entry: N=C(N)NCCC[C@@H]1NC(=O)[C@@H](CCCNC(=N)N)NC(=O)[C@H]2CCCN2C(=O)[C@@H](Cc2c[nH]cn2)NC(=O)[C@H](Cc2ccc(O)cc2)NC(=O)[C@H](CCCCCS)NC(=O)[C@H](CCc2ccccc2)NC(=O)[C@@H](CO)NC(=O)[C@H](CC(=O)O)NC1=O [des3.3.1, SHA-Tyr-dHis-dPro-dArg-Arg-Asp-dSer-C27] (HELM PEPTIDE1{[O=C([C@H](CCCCCS)N[*:1])[*:2]].Y.[dH].[dP].[dR].R.D.[dS].[O=C([C@H](CCc1ccccc1)N[*:1])[*:2]]}$PEPTIDE1,PEPTIDE1,1:R1-9:R2$$$V2.0)
-3312

# input compound: C[C@H](O)[C@H]1NC(=O)[C@H](Cc2c[nH]c3ccccc23)NC(=O)[C@H](CCCCCS)NC(=O)[C@H](CCCCN)NC(=O)[C@@H](CC(=O)O)NC(=O)[C@@H](CCCCN)NC(=O)[C@@H](CO)NC(=O)[C@H](CC(N)=O)NC(=O)[C@H](CC(=O)O)NC1=O [des2.1.0, SHA-Trp-dThr-Asp-Asn-dSer-dLys-dAsp-Lys] (HELM PEPTIDE1{D.N.[dS].[dK].[dD].K.[O=C([C@H](CCCCCS)N[*:1])[*:2]].W.[dT]}$PEPTIDE1,PEPTIDE1,1:R1-9:R2$$$V2.0) ; wanted: its HDAC3 activity raw data (signal)
92063

Returns the measured HDAC3 activity raw data (signal) for the input compound. Input: NCCCC[C@@H]1NC(=O)[C@@H]2CCCN2C(=O)[C@H](CC(N)=O)NC(=O)[C@H](CCCCCS)NC(=O)CNC(=O)[C@H](Cc2c[nH]c3ccccc23)NC(=O)[C@@H](CCCCN)NC(=O)[C@H](CCC(N)=O)NC1=O [des1.1.0, SHA-Asn-Pro-Lys-Gln-dLys-Trp-Gly] (HELM PEPTIDE1{G.[O=C([C@H](CCCCCS)N[*:1])[*:2]].N.P.K.Q.[dK].W}$PEPTIDE1,PEPTIDE1,1:R1-8:R2$$$V2.0)
58802

GET /values?readout=HDAC3 activity raw data (signal)&item= N=C(N)NCCC[C@@H]1NC(=O)[C@H](Cc2c[nH]c3ccccc23)NC(=O)[C@H](CC(=O)O)NC(=O)[C@@H](CO)NC(=O)[C@H](Cc2c[nH]c3ccccc23)NC(=O)[C@H](CCCCCS)NC(=O)[C@H](CCC(N)=O)NC1=O [des4.1.0, SHA-Trp-dSer-Asp-Trp-Arg-Gln] (HELM PEPTIDE1{D.W.R.Q.[O=C([C@H](CCCCCS)N[*:1])[*:2]].W.[dS]}$PEPTIDE1,PEPTIDE1,1:R1-7:R2$$$V2.0)
49544

Can you share its HDAC3 activity raw data (signal)? I mean this compound: NCCCC[C@@H]1NC(=O)[C@@H]2C[C@@H](O)CN2C(=O)[C@H](CC(N)=O)NC(=O)[C@H](CCCCCS)NC(=O)CNC(=O)[C@H](Cc2c[nH]c3ccccc23)NC(=O)[C@@H](CCCCN)NC(=O)[C@H](CCC(N)=O)NC1=O [des1.1.2, SHA-Asn-Hpr-Lys-Gln-dLys-Trp-Gly] (HELM PEPTIDE1{G.[O=C([C@H](CCCCCS)N[*:1])[*:2]].N.[Hyp].K.Q.[dK].W}$PEPTIDE1,PEPTIDE1,1:R1-8:R2$$$V2.0)
160146

Quick one: HDAC3 activity raw data (signal) of N=C(N)NCCC[C@H]1NC(=O)[C@@H]2CCCN2C(=O)[C@H](CO)NC(=O)[C@@H](Cc2c[nH]cn2)NC(=O)[C@H](CCCCCS)NC(=O)[C@H](CCCCN)NC(=O)[C@H](Cc2ccc(O)cc2)NC(=O)[C@H]2CCCN2C(=O)[C@@H](CCC(N)=O)NC1=O [des3.1.0, SHA-dHis-Ser-Pro-dArg-dGln-dPro-Tyr-Lys] (HELM PEPTIDE1{K.[O=C([C@H](CCCCCS)N[*:1])[*:2]].[dH].S.P.[dR].[dQ].[dP].Y}$PEPTIDE1,PEPTIDE1,1:R1-9:R2$$$V2.0) ?
407446

Reported HDAC3 activity raw data (signal), compound NCCCC[C@H]1NC(=O)[C@H](CCC(N)=O)NC(=O)[C@H](CCC(=O)O)NC(=O)[C@@H]2CCCN2C(=O)[C@H](CC(N)=O)NC(=O)[C@H](CCCCCS)NC(=O)CNC(=O)[C@H](Cc2c[nH]c3ccccc23)NC1=O [des1.1.1, SHA-Asn-Pro-Glu-Gln-dLys-Trp-Gly] (HELM PEPTIDE1{E.Q.[dK].W.G.[O=C([C@H](CCCCCS)N[*:1])[*:2]].N.P}$PEPTIDE1,PEPTIDE1,1:R1-8:R2$$$V2.0) : ____
200334

Which HDAC3 activity raw data (signal) reading was recorded for the compound CC(C)[C@@H]1NC(=O)[C@H](CCCNC(=N)N)NC(=O)[C@@H](CC(=O)O)NC(=O)[C@H](CO)NC(=O)[C@@H](CO)NC(=O)[C@@H](CCC(=O)O)NC(=O)[C@H](Cc2ccc(O)cc2)NC(=O)[C@H](CCCCCS)NC1=O [des4.2.0, SHA-Tyr-dGlu-dSer-Ser-dAsp-Arg-Val] (HELM PEPTIDE1{R.V.[O=C([C@H](CCCCCS)N[*:1])[*:2]].Y.[dE].[dS].S.[dD]}$PEPTIDE1,PEPTIDE1,1:R1-8:R2$$$V2.0) ?
160928

# query: HDAC3 activity raw data (signal) of entry CCCC[C@H]1NC(=O)[C@H](Cc2ccccc2)NC(=O)[C@H](CCCCCS)NC(=O)[C@@H](CCCNC(=N)N)NC(=O)[C@H](CC(=O)O)NC(=O)[C@@H](CO)NC(=O)[C@@H](C)NC(=O)[C@H](CCCCN)NC1=O [des4.3.1, SHA-Phe-dNle-Lys-dAla-dSer-Asp-dArg] (HELM PEPTIDE1{D.[dR].[O=C([C@H](CCCCCS)N[*:1])[*:2]].F.[CCCC[C@@H](N[*:1])C(=O)[*:2]].K.[dA].[dS]}$PEPTIDE1,PEPTIDE1,1:R1-8:R2$$$V2.0)
372696

With those in mind, consider the next compound.
What measured HDAC3 activity raw data (signal) goes with CSCC[C@H]1NC(=O)[C@@H](CO)NC(=O)[C@H](CC(N)=O)NC(=O)[C@H](CC(=O)O)NC(=O)[C@@H]([C@H](C)O)NC(=O)[C@H](Cc2c[nH]c3ccccc23)NC(=O)[C@H](CCCCCS)NC(=O)[C@H](CCCCN)NC(=O)[C@@H](CC(=O)O)NC1=O [des2.1.1, SHA-Trp-dThr-Asp-Asn-dSer-dMet-dAsp-Lys] (HELM PEPTIDE1{D.N.[dS].[dM].[dD].K.[O=C([C@H](CCCCCS)N[*:1])[*:2]].W.[dT]}$PEPTIDE1,PEPTIDE1,1:R1-9:R2$$$V2.0) ?
51390
